- System: C. neoformans 2867E
- experimentalDetails: in vitro antifungal MIC, two-fold serial dilution
- Format: cell-based, Cryptococcus neoformans
measureName: MIC (minimum inhibiting concentration) (µg/mL)

molecule="CC(C)C1=CC2CC3(C=O)C4CCC(C)C4CC2(COC2CC4C(=O)COC4C(C)O2)C13C(=O)O (centres unmarked) [Example 37]" unitannotation=µg/mL relationaloperator=≤ readoutnumber=0.250
molecule="CC(C)C1=CC2CC3(C=O)C4CCC(C)C4CC2(COC2OC(C)C4OC(C)(C)OC4C2O)C13C(=O)O (centres unmarked) [Example 1]" unitannotation=µg/mL relationaloperator=> readoutnumber=125
molecule="CCCOC1C(C)OC(OCC23CC4C(C)CCC4C4(C=O)CC2C=C(C(C)C)C43C(=O)O)C2OC12 (centres unmarked) [Example 52]" unitannotation=µg/mL relationaloperator== readoutnumber=1.00
molecule="C=CCOC1C(C)OC(OCC23CC4C(C)CCC4C4(C=O)CC2C=C(C(C)C)C43C(=O)O)C2OC12 (centres unmarked) [Example 68]" unitannotation=µg/mL relationaloperator== readoutnumber=1.00
molecule="COC1C(C)OC(OCC23CC4C(C)CCC4C4(C=O)CC2C=C(C(C)C)C43C(=O)O)C2SC12 (centres unmarked) [Example 51]" unitannotation=µg/mL relationaloperator=≤ readoutnumber=125
molecule="CC(C)C1=CC2CC3(C=O)C4CCC(C)C4CC2(COC2CC4OC(C)(C)OC4C(C)O2)C13C(=O)O (centres unmarked) [Example 6]" unitannotation=µg/mL relationaloperator== readoutnumber=8.00
molecule="CC(C)C1=CC2CC3(C=O)C4CCC(C)C4CC2(COC2CC4C(C)COC4C(C)O2)C13C(=O)[O-].[Na+] (centres unmarked) [Example 20]" unitannotation=µg/mL relationaloperator== readoutnumber=0.250
molecule="C=C1COC2C(C)OC(OCC34CC5C(C)CCC5C5(C=O)CC3C=C(C(C)C)C54C(=O)[O-])CC12.[Na+] (centres unmarked) [Example 34]" unitannotation=µg/mL relationaloperator=≤ readoutnumber=0.250
